Measured Target: AAV9 (adeno-associated virus serotype 9)
Measurement Protocol: SPR, AAV on CM5 chip
Measured Quantity: kon (M⁻¹ s⁻¹)
Numeric only. Scale: M⁻¹ s⁻¹

A4-C6 (bispecific antibody) VQLQESGGGLVQPGGSLRLSCAASGSNFRINTMGWYRQAPGKQRELVAPVTRGGSTNYADSVKGRFTISRDNAKNTVYLQMNSLRPEDTAVYYCHVDEVRESSWTTSNLWGQGTQVTVSSGGGGSGGGGSGGGGSVQLQESGGGLVQPGGSLRLSCAASGSNFSINTMGWYRQAPGKQRELVAALTRGGSTNYADSVKGRFTISRDNAKNTVYLQMNSLRPEDTAVYYCHVDEVRESSWTTSNLWGQGTQVTVSSGGGGSGGGGSGGGGSVQLQESGGGLVQPGGSLRLSCAASGSNFSINTMGWYRQAPGKQRELVATVTRGGDTNYADSVKGRFTISRDNAKNTVYLQMNSLRPEDTAVYYCHVDEIRESSWTTSNLWGQGTQVTVSS = 45400
A4-B2 (bispecific antibody) VQLQESGGGLVQAGGSLRLSCAASGSRFSINTMGWYRQAPGKQREFVATVTRGGNTNYAESVKGRFTISRDNAKNTVYLQMNSLRPEDTAVYYCHVDEVRDSSWTTSNIWGQGTQVTVSSGGGGSGGGGSGGGGSVQLQESGGGLVQAGGSLRLSCAASGSTFSINTMGWYRQAPGKQRELVATITRGGNTNYADSVKGRFTISRDNAKNTVYLQMNSLRPEDTAVYYCHVDEVRQSSWTTSNLWGQGTQVTVSS = 95800

Q) Report kon for A4-C8 (bispecific antibody) VQLQESGGGLVQPGGSLRLSCAASGSNFRINTMGWYRQAPGKQRELVAPVTRGGSTNYADSVKGRFTISRDNAKNTVYLQMNSLRPEDTAVYYCHVDEVRESSWTTSNLWGQGTQVTVSSGGGGSGGGGSGGGGSVQLQESGGGLVQPGGSLRLSCAASGSNFSINTMGWYRQAPGKQRELVATVTRGGDTNYADSVKGRFTISRDNAKNTVYLQMNSLRPEDTAVYYCHVDEIRESSWTTSNLWGQGTQVTVSSGGGGSGGGGSGGGGSVQLQESGGGLVQPGGSLRLSCAASGSNFSINTMGWYRQAPGKQRELVAALTRGGSTNYADSVKGRFTISRDNAKNTVYLQMNSLRPEDTAVYYCHVDEVRESSWTTSNLWGQGTQVTVSS please.
A) 179000

The values you see were collected from patent US20260193326A1.
